Values from patent US20230090683A1

method_summary: Solubility of aspacytarabine in different solubilizers/stabilizers (Table 1, FIG. 1)
Format: physicochemical
recorded_conditions: Solutol HS15 as solubilizer/stabilizer, aqueous with cosolvent or surfactant or cyclodextrin, thermodynamic from solid; solubilizer/stabilizer Solutol HS15; read-out: Conc (solubility of aspacytarabine)
assay_metric: solubility (mg/mL)
Give bare numbers, in mg/mL.

solubility reported for this compound N[C@@H](CC(=O)Nc1ccn([C@@H]2O[C@H](CO)[C@@H](O)[C@@H]2O)c(=O)n1)C(=O)O [aspacytarabine] : 16.1

----------
method_summary: Solubility of aspacytarabine in different solubilizers/stabilizers (Table 1, FIG. 1)
Assay type: physicochemical
recorded_conditions: aqueous solution with 1% w/w poloxamer 188, aqueous with cosolvent or surfactant or cyclodextrin, thermodynamic from solid; solubilizer/stabilizer Poloxamer 1% w/w aqueous solution; after 24 hours, room temperature, pH 4.5; read-out: Conc (solubility of aspacytarabine)
assay_metric: solubility at 24 h
Give the value; after it, write the unit.

solubility at 24 h reported for this compound "N[C@@H](CC(=O)Nc1ccn([C@@H]2O[C@H](CO)[C@@H](O)[C@@H]2O)c(=O)n1)C(=O)O" : 95.3 mg/mL
